Each recorded value in this set is attributed to patent US20220324835A1.

Readings of fold induction at 0.3 µM for the listed compounds
Test system: T-cell
experiment-notes: CD25 cell surface staining on T-cells co-stimulated with anti-CD3 and anti-CD28 antibody (Biological Example 2)
Format: cell-based, human
run-parameters: Homo sapiens, T-cell, 0.3 μM Cbl-b inhibitor; fold change over baseline (anti-CD3/anti-CD28 stimulated T-cells without inhibitor); read-out: CD25 staining Anti-CD3/Anti-CD28 stimulation

Look over these answered cases.
- compound: "CC1C(C(F)(F)F)CCN1Cc1cc2c(c(C(F)(F)F)c1)CN(c1cccc(C3(Cc4nncn4C)COC3)c1)C2=O (centres unmarked)"
  measured-value: "1.01 to 1.3"
- compound: "COC1CCCN(Cc2cc3c(c(C(F)(F)F)c2)CN(c2cccc(C4(Cc5nncn5C)COC4)c2)C3=O)C1 (centres unmarked)"
  measured-value: "1.31 to 1.5"
- compound: "Cn1cnnc1[C@H](F)C1(c2cccc(N3Cc4c(cc(CN5[C@@H]6CC[C@H]5C[C@@H](F)C6)cc4C(F)(F)F)C3=O)c2)COC1 [Example 672b]"
  measured-value: "> 1.76"
- compound: "C[C@@H]1CCN(Cc2cc3c(c(C(F)(F)F)c2)CN(c2cccc(C4(Cc5nncn5C)COC4)c2)C3=O)C[C@H]1F (relative stereo)"
  measured-value: "1.31 to 1.5"
- compound: "CO[C@@H]1CCN(Cc2cc3c(c(C(F)(F)F)c2)CN(c2cccc(C4(Cc5nncn5C)COC4)c2)C3=O)C[C@@H]1F (relative stereo)"
  measured-value: "1.31 to 1.5"

compound Cc1cc(C(=O)Nc2cccc(C3(C(F)(F)c4nncn4C)COC3)c2)nc(C2CC2)n1 , fold induction at 0.3 µM observed: 1.01 to 1.3

compound Cn1cnnc1CC1(c2cccc(N3Cc4c(cc(CN5CCCCC(F)C5)cc4C(F)(F)F)C3=O)c2)COC1 (centres unmarked) , fold induction at 0.3 µM observed: 1.31 to 1.5

compound Cn1cnnc1CC1(c2cccc(N3Cc4c(cc(CN5CCC(C)(C#N)CC5)cc4C(F)(F)F)C3=O)c2)COC1 , fold induction at 0.3 µM observed: 1.31 to 1.5

---

assay-target: Cbl-b (Homo sapiens)
Sequence (Q13191 36-427): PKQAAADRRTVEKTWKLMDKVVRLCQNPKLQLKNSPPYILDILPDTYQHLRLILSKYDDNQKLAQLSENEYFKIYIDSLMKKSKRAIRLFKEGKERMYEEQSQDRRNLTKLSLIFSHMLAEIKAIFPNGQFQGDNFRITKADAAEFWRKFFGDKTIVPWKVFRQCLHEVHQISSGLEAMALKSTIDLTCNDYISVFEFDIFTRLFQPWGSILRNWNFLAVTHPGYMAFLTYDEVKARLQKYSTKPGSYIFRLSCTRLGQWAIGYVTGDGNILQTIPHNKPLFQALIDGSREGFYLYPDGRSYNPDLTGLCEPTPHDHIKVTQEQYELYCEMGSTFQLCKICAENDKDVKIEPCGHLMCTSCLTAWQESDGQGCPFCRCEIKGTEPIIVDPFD
experiment-notes: Cbl-b activity assay (Cbl-b inhibition assay), TR-FRET of Cbl-b interaction with UbcH5B-Ub
Format: biochemical
run-parameters: assay buffer with 100 mM NaCl, 60 nM Src kinase; read-out: Cbl-b activity IC50
pIC50: −log10 of the molar value.
reported-metric: pIC50

Look over these answered cases.
- compound: "C[C@H](Cc1nnco1)c1cccc(N2Cc3c(cccc3C(F)(F)F)C2=O)c1"
  pIC50: "5.00 to 5.52"
- compound: "Cn1cnnc1[C@@H](F)C1(c2cccc(N3Cc4c(cc(CN5C6CCCC5CC6)cc4C(F)(F)F)C3=O)c2)COC1 [Example 675a]"
  pIC50: "> 7.00"
- compound: "C[C@@H](Cc1nncn1C)c1ccnc(N2Cc3c(cccc3C(F)(F)F)C2=O)c1 [Compound 304a]"
  pIC50: "5.00 to 5.52"
- compound: "Cn1cnnc1CC1(c2cccc(NC(=O)c3cc(C4CC4)nc(C4CC4)n3)c2)COC1"
  pIC50: "> 7.00"
- compound: "Cc1cnc(C(=O)Nc2cccc([C@H](C)Sc3nncn3C)c2)cc1C1CC1"
  pIC50: "5.00 to 5.52"
- compound: "Cn1cnnc1[C@H](F)C1(c2cccc(N3Cc4c(cc(CN5C6CCC5CC6)cc4C(F)(F)F)C3=O)c2)COC1 [Example 671b]"
  pIC50: "> 7.00"
- compound: "Cn1cnnc1CC1(c2cccc(N3Cc4c(cc(OC5CNC5)cc4C(F)(F)F)C3=O)c2)COC1"
  pIC50: "> 7.00"
- compound: "C[C@H](Sc1nncn1C)c1cccc(NC(=O)c2cc(C(=O)N3CCC3)ccn2)c1"
  pIC50: "5.00 to 5.52"
- compound: "Cn1cnnc1CC1(c2cccc(N3Cc4c(cc(N5CC6(CCC6(F)F)C5)cc4C(F)(F)F)C3=O)c2)COC1"
  pIC50: "> 7.00"
- compound: "CCOc1cc(N2Cc3c(cc([C@@H](C)N4CC[C@H](F)C4)cc3C(F)(F)F)C2=O)cc(C2(Cc3nncn3C)COC2)c1 [Example 691a]"
  pIC50: "> 7.00"

compound C[C@H](Sc1nncn1C)c1cccc(NC(=O)c2cc(C(F)(F)F)cc(C3CC3)n2)c1 , pIC50 observed: 6.00 to 6.52

compound CC[C@@H](c1cc2c(c(C(F)(F)F)c1)CN(c1cccc(C3(Cc4nncn4C)COC3)c1)C2=O)N1CC[C@H](F)C1 , pIC50 observed: > 7.00

compound CCn1cnnc1CC1(c2cccc(NC(=O)c3cc(C)nc(C4CC4)n3)c2)COC1 , pIC50 observed: 5.00 to 5.52

compound Cc1cc(C(=O)Nc2cccc(C3(C(F)(F)c4nncn4C)CC3)c2)nc(C2CC2)n1 , pIC50 observed: > 7.00

compound C[C@H](Sc1nncn1C)c1ccnc(NC(=O)c2cccc(C3CC3)n2)c1 , pIC50 observed: 5.52 to 6.00

compound Cn1cnnc1CC1(c2cccc(N3Cc4c(cc(CN5CC6CC5CO6)cc4C(F)(F)F)C3=O)c2)COC1 (stereo not drawn) , pIC50 observed: > 7.00

compound C[C@H](Cc1nocc1C(F)(F)F)c1cccc(N2Cc3c(cc(C(=O)N4CC[C@H](O)C4)cc3C(F)(F)F)C2=O)c1 , pIC50 observed: 6.52 to 7.00

compound Cc1conc1CC1(c2cccc(NC(=O)c3cc(CN4CC[C@H](O)C4)nc(C4CC4)n3)c2)COC1 , pIC50 observed: > 7.00

compound CN1CCN(c2cc3c(c(C(F)(F)F)c2)CN(c2cccc(C4(Cc5nncn5C)COC4)c2)C3=O)CC12CC2 , pIC50 observed: > 7.00

compound CN1CCN(c2cc3c(c(C(F)(F)F)c2)CN(c2cccc(C4(Cc5nncn5C)COC4)c2)C3=O)C(=O)C1 , pIC50 observed: > 7.00
